target: Adenosine receptor A1 (Homo sapiens) (UniProt P30542)
Sequence (whole entry): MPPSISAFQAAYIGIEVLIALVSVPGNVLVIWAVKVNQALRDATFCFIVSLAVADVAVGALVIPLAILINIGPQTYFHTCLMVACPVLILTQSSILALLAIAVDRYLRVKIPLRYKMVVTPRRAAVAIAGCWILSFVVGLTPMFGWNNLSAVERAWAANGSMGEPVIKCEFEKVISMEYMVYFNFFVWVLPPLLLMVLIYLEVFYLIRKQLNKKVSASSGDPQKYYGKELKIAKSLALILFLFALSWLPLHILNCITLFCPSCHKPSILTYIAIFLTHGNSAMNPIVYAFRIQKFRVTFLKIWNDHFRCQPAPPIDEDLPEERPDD
method description: Ability to displace the binding of [3H]DPCPX to the ligand binding site of CHO:hA1 (human Adenosine A1 receptor) at concentration of 10 uM
recorded metric: inhibition (%)
Give bare numbers, in %.

Sample answers from the record:
Incoming: So what's the measured inhibition for this one? Nc1sc2c(c1C(=O)c1ccc(I)c3ccccc13)CCCC2
Outgoing: 15.3

Incoming: Consider the compound shown here: Nc1sc2c(c1C(=O)c1ccc(Br)c3ccccc13)CCCC2 What is its recorded inhibition?
Outgoing: 12

Incoming: Request the reported inhibition associated with Nc1sc2c(c1C(=O)c1ccc(Br)c3ccccc13)CCC2
Outgoing: -0

Incoming: Data request, read-out inhibition, for Nc1sc2c(c1C(=O)c1cccc3ccccc13)CCCC2
Outgoing: 2

Below are some compounds; for each one, tell me its inhibition.
1. Nc1sc2ccccc2c1C(=O)c1cccc2ccccc12
2. Nc1sc2c(c1C(=O)c1ccc(Cl)c3ccccc13)CCCC2
3. Nc1sc2c(c1C(=O)c1ccc(I)c3ccccc13)CCC2
4. Cc1sc(N)c(C(=O)c2ccc3ccccc3c2)c1C

Outgoing:
13.5
4.8
3.3
-0

---

target: Adenosine receptor A1 (Homo sapiens)
method description: Dissociation rate of [3H]CCPA from Adenosine A1 receptor expressing CHO cells at 10 uM as percent t1/2
Type: cell-based
Can you tell me T1/2 increase for the items I'm about to list?
Answer with the figure and its unit, nothing else.

Sample answers from the record:
Incoming: # query: T1/2 increase of entry Nc1sc2c(c1C(=O)c1ccc(Cl)c3ccccc13)CCC2
Outgoing: 43%

Incoming: Please give the measured T1/2 increase for this compound: Nc1sc2c(c1C(=O)c1ccc(Cl)c3ccccc13)CCCC2
Outgoing: 36%

Incoming: Look up T1/2 increase: Nc1sc2c(c1C(=O)c1ccc(I)c3ccccc13)CCCC2
Outgoing: 60%

Incoming: Please give the measured T1/2 increase for this compound: Nc1sc2c(c1C(=O)c1ccc(Br)c3ccccc13)CCCC2
Outgoing: 43%

Incoming: Consider the compound shown here: Nc1sc2c(c1C(=O)c1ccc3ccccc3c1)CCCC2 What is its recorded T1/2 increase?
Outgoing: 10%

Each compound below has a recorded value; state its T1/2 increase.
1. Nc1sc2c(c1C(=O)c1ccc3ccccc3c1)CCC2
2. Cc1sc(N)c(C(=O)c2cccc3ccccc23)c1C
3. Nc1sc2c(c1C(=O)c1ccc(Br)c3ccccc13)CCC2
4. Cc1sc(N)c(C(=O)c2cccc(C(F)(F)F)c2)c1C
5. Nc1sc2c(c1C(=O)c1cccc3ccccc13)CCCC2

Outgoing:
["42%", "85%", "4%", "43%", "29%"]

Below are some compounds; for each one, tell me its T1/2 increase.
1. Nc1sc2c(c1C(=O)c1cccc3ccccc13)CCC2
2. Nc1sc2c(c1C(=O)c1ccc(I)c3ccccc13)CCC2

Outgoing:
1: -0%; 2: 41%
